test target: Adenosine receptor A1 (Oryctolagus cuniculus)
Sequence (P34970 whole entry): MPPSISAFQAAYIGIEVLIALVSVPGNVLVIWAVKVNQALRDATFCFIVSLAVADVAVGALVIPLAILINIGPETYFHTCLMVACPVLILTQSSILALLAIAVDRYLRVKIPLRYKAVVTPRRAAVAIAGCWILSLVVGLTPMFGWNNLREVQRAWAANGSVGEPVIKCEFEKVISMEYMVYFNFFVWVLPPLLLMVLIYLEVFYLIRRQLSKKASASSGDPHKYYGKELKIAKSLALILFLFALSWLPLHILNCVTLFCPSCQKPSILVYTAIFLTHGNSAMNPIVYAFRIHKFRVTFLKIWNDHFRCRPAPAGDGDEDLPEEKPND
measured metric: Ki
Write the numeric value and follow it with the unit.

compound Cn1c(=O)c2[nH]cnc2n(C)c1=O [Theophylline (1,3-dimethylxanthine)] , Ki observed: 4.71 µM

---

Lab note: Ki readings collected with P2Y purinoceptor 2 (Cricetulus griseus) for the following compounds.
Sequence (P58825 whole entry): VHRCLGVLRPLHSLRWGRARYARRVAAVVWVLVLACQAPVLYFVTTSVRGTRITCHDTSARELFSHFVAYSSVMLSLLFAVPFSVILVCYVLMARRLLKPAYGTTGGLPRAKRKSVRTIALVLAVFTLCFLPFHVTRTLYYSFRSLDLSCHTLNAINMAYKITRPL
State the answer as a number, implicitly in nM.

# compound, scale unit, Ki
data = [
    ("Cn1c(=O)c2[nH]c(C3CCCC3)nc2n(C)c1=O [NSC_1917]", "nM", 4.3),
]

Next up:
compound Cn1c(=O)c2[nH]cnc2n(C)c1=O [Theophylline (1,3-dimethylxanthine)] , Ki observed: 4550
